Assay: Metabolic stability in human liver microsomes assessed as compound degradation by LC-MS/MS analysis
Format: ADME, Microsome
Details: read-out: Drug degradation
quantity.name: metabolised

Provide measured metabolised value, entry: `COC(=O)/C=C/c1cc(C(=O)NCc2ccc(C)cc2)cc(-c2ccc3ncnn3c2)c1`
25%

* * *

Experiment: Metabolic stability in mouse liver microsomes assessed as compound degradation by LC-MS/MS analysis
Assay type: ADME, Microsome
Conditions: read-out: Drug degradation
quantity.name: metabolised (%)
// units = %; emit number, no label

Item `COC(=O)/C=C/c1cc(C(=O)NCc2ccc(C)cc2)cc(-c2ccc3ncnn3c2)c1` : provide metabolised
25

* * *

Species: Homo sapiens
Assay: Selectivity ratio of IC50 for AKR1C2 (unknown origin) to IC50 for AKR1C3 (unknown origin)
Entries are grouped by Ratio IC50 into these classes: low class: < 100; middle class: ≥ 100 and < 200; high class: ≥ 200

Which class does `Cc1ccc(CNC(=O)c2cc(/C=C/C(=O)O)cc(-c3ccc4nccnc4c3)c2)cc1` fall in?
middle class

Next:
Returns: class label. Input: `Cc1ccc(CNC(=O)c2cc(/C=C/C(=O)O)cc(-c3ccc4cccnc4c3)c2)cc1`
middle class

# bin lookup: classify `Cc1ccc(CNC(=O)c2cc(/C=C/C(=O)O)cc(-c3ccc4ccccc4c3)c2)cc1` by its Ratio IC50
middle class

Please classify: `Cc1ccc(CNC(=O)c2cc(/C=C/C(=O)O)cc(-c3ccccc3F)c2)cc1`
high class

Into which category would you place Cc1ccc(CNC(=O)c2cc(/C=C/C(=O)O)cc(CC(C)c3ccccc3)c2)cc1 (stereo not drawn) ?
middle class

Category of `Cc1ccc(CNC(=O)c2cc(/C=C/C(=O)O)cc(-c3ccc(Cl)cc3)c2)cc1` :
high class

* * *

Organism: Homo sapiens
Assay: Selectivity ratio of IC50 for AKR1C2 (unknown origin) to IC50 for AKR1C3 (unknown origin)
Note to self: values exactly at 200 are yes (1). So Ratio IC50 at or above 200 is yes (1), below is no (0).

Here are 5 compounds together with their reported answers.
Say whether `Cc1ccc(CNC(=O)c2cc(/C=C/C(=O)O)cc(-c3ccc(CN4CCOCC4)c(F)c3)c2)cc1` shows Ratio IC50 of 200 or more.
no (0)

Does `Cc1ccc(CNC(=O)c2cc(/C=C/C(=O)O)cc(-c3ccc4ncnn4c3)c2)cc1` have a reported Ratio IC50 of at least 200?
yes (1)

Entry `C/C=C/Cc1cc(/C=C/C(=O)O)cc(C(=O)NCc2ccc(C)cc2)c1` : is its Ratio IC50 no less than 200?
yes (1)

Quick check: does `Cc1ccc(CNC(=O)c2cc(/C=C/C(=O)O)cc(-c3ccc(-c4ccccc4)cc3)c2)cc1` have Ratio IC50 greater than or equal to 200?
yes (1)

Reported Ratio IC50 reaches at least 200 for `CC(C)=CCOc1cc(/C=C/C(=O)O)cc(C(=O)NCc2ccc(C)cc2)c1` ?
no (0)

Continuing:
Please tell me: is the compound `CC[C@@H](NC(=O)c1cc(/C=C/C(=O)O)cc(-c2ccc(C(C)C)cc2)c1)c1ccccc1` at or over 200 in terms of Ratio IC50?
no (0)

Can `Cc1ccc(CNC(=O)c2cc(/C=C/C(=O)O)cc(-c3ccc(-n4c5ccccc5c5ccccc54)cc3)c2)cc1` be said to have Ratio IC50 at or above 200?
yes (1)

Identify whether the reported Ratio IC50 of the following compound is 200 or greater: `Cc1ccc(CNC(=O)c2cc(/C=C/C(=O)O)cc(-c3ccc(F)cc3)c2)cc1`
yes (1)

Given `Cc1ccc(CNC(=O)c2cc(/C=C/C(=O)O)cc(-c3ccc(Oc4ccccc4)cc3)c2)cc1` , state whether its Ratio IC50 is at least 200.
no (0)

Quick check, Ratio IC50 >= 200? `Cc1ccc(CNC(=O)c2cc(/C=C/C(=O)O)cc(-c3ccc(C)cc3)c2)cc1`
no (0)

Given `Cc1ccc(CNC(=O)c2cc(C#CC3CC3)cc(/C=C/C(=O)O)c2)cc1` , state whether its Ratio IC50 is at least 200.
no (0)

Tell me whether Ratio IC50 is at least 200 here: `Cc1ccc(CNC(=O)c2cc(C#Cc3ccccc3)cc(/C=C/C(=O)O)c2)cc1`
no (0)

Check the entry `Cc1ccc(CNC(=O)c2cc(/C=C/C(=O)O)cc(-c3cccc(F)c3)c2)cc1` : does Ratio IC50 equal or exceed 200?
yes (1)

Answer whether Ratio IC50 of `Cc1ccc(CNC(=O)c2cc(/C=C/C(=O)O)cc(-c3ccccc3)c2)cc1` is greater than or equal to 200.
yes (1)

API: above_or_equal(metric=Ratio IC50, cutoff=200) for item `Cc1ccc(CNC(=O)c2cc(Br)cc(/C=C/C(=O)O)c2)cc1`
yes (1)
